// provenance: the RNAGym collection of RNA variant scans (doi:10.1126/science.aae0568)

B1: tRNA (parent)
chain: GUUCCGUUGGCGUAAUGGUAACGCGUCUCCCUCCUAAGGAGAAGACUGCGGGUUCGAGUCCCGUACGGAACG

Variants of: B1
Test: yeast fitness relative to wild type (ratio to wild type); higher = fitter; tRNA-Arg(CCU), competitive growth, 37 C, YPD
Fewer inactive variants are shown than the library holds.
VALUE_TYPE: yeast fitness

>>> recorded_measurement("U7C C60G")
0.583
>>> recorded_measurement("G39C A43U U53C")
0.606
>>> recorded_measurement("U13A C55U A69C")
0.599
>>> recorded_measurement("A14G C22G U26C C31G")
0.615
>>> recorded_measurement("G10C C27U A40U A45U G48A C55U C66U")
0.591
